Record set of AC50 for target or system Motilin receptor (Homo sapiens). Further: assay procedure not described here.

Request: Fill in: AC50 of COC(=O)[C@@H]1CC2=CC(=O)CC[C@]2(C)[C@@]23O[C@@H]2C[C@@]2(C)[C@@H](CC[C@@]24CCC(=O)O4)[C@H]13 [EPLERENONE] is ___
Response: > 30 µM

Request: Here is the next compound: NC(CO)C(=O)NNCc1ccc(O)c(O)c1O (centres undefined) [BENSERAZIDE]
Response: > 10 µM

Request: Here is the next compound: CC(=O)OCC(=O)[C@@]12OC3(CCCC3)O[C@@H]1C[C@H]1[C@@H]3CCC4=CC(=O)C=C[C@]4(C)[C@@]3(F)[C@@H](O)C[C@@]12C [AMCINONIDE]
Response: > 10 µM

Request: Here is the next compound: `CN1CC(=O)N2[C@H](c3ccc4c(c3)OCO4)c3[nH]c4ccccc4c3C[C@@H]2C1=O`
Response: > 10 µM

Request: Here is the next compound: O=C(Nc1ccccc1)OCC(CN1CCCCC1)OC(=O)Nc1ccccc1 (centres undefined) [DIPERODON]
Response: > 10 µM

Request: Here is the next compound: CCc1ccc(CCOc2ccc(CC3SC(=O)NC3=O)cc2)nc1 (centres undefined) [PIOGLITAZONE]
Response: > 10 µM

Request: Here is the next compound: CC(Cc1ccccc1)NCCC(c1ccccc1)c1ccccc1 (centres undefined) [PRENYLAMINE]
Response: > 10 µM

Request: Here is the next compound: `CCOC(=O)[C@H](CCc1ccccc1)N[C@@H](C)C(=O)N1CCC[C@H]1C(=O)O`
Response: > 10 µM

Request: Here is the next compound: O=C(C[S+]([O-])C(c1ccccc1)c1ccccc1)NO (centres undefined)
Response: > 30 µM
